meta.source: patent US5679671A

# EXPERIMENT_DESCRIPTION: in vivo
# RUN_CONDITIONS: rat, in vivo, po, 10 mg/kg
VALUE_KIND: bioavailability

Problem: Fill blank: measured bioavailability of the molecule O=C(N[C@H]1Cc2ccc(-c3ccccc3)cc2[C@H]2CCC[C@@H](C(=O)O)N2C1=O)[C@@H](S)Cc1ccccc1 is ____.
Result: 18.8%

* * *

# MEASURED_TARGET: ACE (Rattus norvegicus, UniProt P47820)
# Construct: membrane fraction prepared from rat lung; from tissue; host or cells: rat lung, membrane fraction (method of Wu-Wong et al.)
# Sequence (P47820 36-1313): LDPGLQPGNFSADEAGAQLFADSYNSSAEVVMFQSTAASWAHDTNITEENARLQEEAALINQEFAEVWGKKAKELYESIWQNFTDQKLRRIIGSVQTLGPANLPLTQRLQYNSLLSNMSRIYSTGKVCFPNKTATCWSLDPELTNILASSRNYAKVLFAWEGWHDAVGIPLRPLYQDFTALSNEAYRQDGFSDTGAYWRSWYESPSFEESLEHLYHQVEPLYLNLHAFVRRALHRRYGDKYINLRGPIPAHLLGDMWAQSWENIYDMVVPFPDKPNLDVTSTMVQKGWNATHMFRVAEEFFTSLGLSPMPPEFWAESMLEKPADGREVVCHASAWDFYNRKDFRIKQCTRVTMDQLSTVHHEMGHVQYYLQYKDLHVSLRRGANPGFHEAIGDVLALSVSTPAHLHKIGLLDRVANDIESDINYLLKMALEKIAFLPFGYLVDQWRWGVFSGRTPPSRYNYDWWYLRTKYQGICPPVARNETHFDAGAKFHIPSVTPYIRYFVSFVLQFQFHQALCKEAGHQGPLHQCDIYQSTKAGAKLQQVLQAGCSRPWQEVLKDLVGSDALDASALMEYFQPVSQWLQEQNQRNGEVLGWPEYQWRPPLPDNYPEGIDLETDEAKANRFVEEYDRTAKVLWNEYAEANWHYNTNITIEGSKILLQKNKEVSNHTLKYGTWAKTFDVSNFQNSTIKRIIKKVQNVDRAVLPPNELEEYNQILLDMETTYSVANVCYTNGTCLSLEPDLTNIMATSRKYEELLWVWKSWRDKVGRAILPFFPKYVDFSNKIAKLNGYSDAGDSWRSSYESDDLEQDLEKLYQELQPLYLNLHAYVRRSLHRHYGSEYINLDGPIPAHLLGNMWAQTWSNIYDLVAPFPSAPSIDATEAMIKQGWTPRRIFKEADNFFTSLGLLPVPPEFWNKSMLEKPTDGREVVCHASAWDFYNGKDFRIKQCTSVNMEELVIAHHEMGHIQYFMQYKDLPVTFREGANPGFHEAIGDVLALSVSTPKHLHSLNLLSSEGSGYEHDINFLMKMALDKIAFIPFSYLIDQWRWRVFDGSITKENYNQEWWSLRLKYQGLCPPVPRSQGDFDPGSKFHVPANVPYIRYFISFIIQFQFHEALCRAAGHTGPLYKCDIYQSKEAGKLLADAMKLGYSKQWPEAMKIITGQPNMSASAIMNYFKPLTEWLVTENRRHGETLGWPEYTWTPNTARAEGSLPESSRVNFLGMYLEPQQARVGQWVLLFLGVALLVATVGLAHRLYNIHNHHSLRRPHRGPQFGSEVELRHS
# EXPERIMENT_DESCRIPTION: ACE inhibition activity using rat lung (Experiment B-2)
# Assay type: biochemical
# RUN_CONDITIONS: rat lung membrane fraction, borate buffer
VALUE_KIND: pIC50
In simple prose, pIC50 is minus the logarithm base ten of a concentration in moles per litre.

Problem: Fill blank: measured pIC50 of the molecule CCOC(=O)C1CCCC2c3sccc3CC(NC(=O)[C@H](Cc3ccccc3)SC(C)=O)C(=O)N12 (single isomer, unassigned) is ____.
Result: 7.22

Problem: Fill blank: measured pIC50 of the molecule O=C(N[C@H]1Cc2sccc2[C@H]2CCC[C@@H](C(=O)O)N2C1=O)[C@@H](S)Cc1ccccc1 is ____.
Result: 7.80

Problem: Fill blank: measured pIC50 of the molecule O=C(O)C1CCCC2c3sccc3CC(NC(=O)[C@@H](S)Cc3ccccc3)C(=O)N12 (stereo partly drawn) is ____.
Result: 7.05

* * *

# MEASURED_TARGET: vasopressin (V2) receptor (Rattus norvegicus, UniProt Q00788)
# Construct: rat kidney (V2); from tissue; host or cells: rat kidney membranes
# Sequence (Q00788 whole entry): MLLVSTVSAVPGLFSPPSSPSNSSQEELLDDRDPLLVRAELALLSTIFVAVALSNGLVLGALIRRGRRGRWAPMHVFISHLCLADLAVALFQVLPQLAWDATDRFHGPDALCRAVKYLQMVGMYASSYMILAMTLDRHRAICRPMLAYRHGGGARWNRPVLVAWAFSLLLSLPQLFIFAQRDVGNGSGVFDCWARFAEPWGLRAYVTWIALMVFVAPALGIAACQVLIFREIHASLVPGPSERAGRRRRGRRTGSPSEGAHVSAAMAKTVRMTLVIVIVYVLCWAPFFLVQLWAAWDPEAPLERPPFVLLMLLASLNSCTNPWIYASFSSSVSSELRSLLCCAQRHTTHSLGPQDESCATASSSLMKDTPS
# EXPERIMENT_DESCRIPTION: V2 receptor binding assay, rat kidney membrane (Experiment E-3)
# RUN_CONDITIONS: [3H]-Arg-vasopressin, pH 7.4
VALUE_KIND: pIC50
In simple prose, pIC50 is minus the logarithm base ten of a concentration in moles per litre.

Problem: Fill blank: measured pIC50 of the compound CC(C)[C@H](S)C(=O)N[C@H]1Cc2ccc(-c3ccccc3)cc2[C@H]2CCC[C@@H](C(=O)O)N2C1=O [Example E-10] is ____.
Result: 5.35

* * *

# MEASURED_TARGET: UniProt P07861
# Sequence (P07861 whole entry): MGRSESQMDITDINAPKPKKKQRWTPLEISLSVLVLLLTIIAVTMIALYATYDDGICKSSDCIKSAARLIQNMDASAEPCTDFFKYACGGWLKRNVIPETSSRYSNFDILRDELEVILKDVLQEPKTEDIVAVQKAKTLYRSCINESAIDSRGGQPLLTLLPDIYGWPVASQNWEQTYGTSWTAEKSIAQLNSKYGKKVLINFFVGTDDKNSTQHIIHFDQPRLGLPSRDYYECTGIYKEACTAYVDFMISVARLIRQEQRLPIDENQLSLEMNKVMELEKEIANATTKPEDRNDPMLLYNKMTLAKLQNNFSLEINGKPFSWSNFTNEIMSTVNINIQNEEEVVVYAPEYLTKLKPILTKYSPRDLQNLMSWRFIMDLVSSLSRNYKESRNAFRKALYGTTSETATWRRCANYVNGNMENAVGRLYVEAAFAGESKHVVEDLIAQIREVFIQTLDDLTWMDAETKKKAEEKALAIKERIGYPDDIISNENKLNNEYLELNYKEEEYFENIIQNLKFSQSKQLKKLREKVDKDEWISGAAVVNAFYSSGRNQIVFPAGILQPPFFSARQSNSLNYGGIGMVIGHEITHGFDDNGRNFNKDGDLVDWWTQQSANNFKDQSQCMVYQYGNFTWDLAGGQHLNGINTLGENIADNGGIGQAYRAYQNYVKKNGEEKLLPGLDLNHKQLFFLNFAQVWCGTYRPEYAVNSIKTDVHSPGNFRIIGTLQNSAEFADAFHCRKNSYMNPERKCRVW
# EXPERIMENT_DESCRIPTION: NEP inhibition activity (Experiment C-1)
# Type: biochemical
# RUN_CONDITIONS: Table C-1
VALUE_KIND: IC50 (nM)
Numeric only. Scale: nM

Problem: Fill blank: measured IC50 of the molecule O=C(N[C@H]1Cc2ccccc2[C@H]2CCC[C@@H](C(=O)O)N2C1=O)[C@@H](S)Cc1ccccc1 [Comp. cpd. E-1, reference compound] is ____.
Result: 27

Problem: Fill blank: measured IC50 of the molecule CC[C@H](C)[C@H](S)C(=O)NC1CCc2ccccc2N(CC(=O)O)C1=O (stereo partly shown) [Example A-9] is ____.
Result: 12.5

Problem: Fill blank: measured IC50 of the molecule CC[C@H](C)[C@H](S)C(=O)N[C@H]1Cc2ccc(NS(C)(=O)=O)cc2[C@H]2CCC[C@@H](C(=O)O)N2C1=O [Example C-15] is ____.
Result: 6.6

Problem: Fill blank: measured IC50 of the molecule CC[C@H](C)[C@H](S)C(=O)N[C@H]1CCc2ccccc2N(CC(=O)O)C1=O [Example A-11] is ____.
Result: 6.2

Problem: Fill blank: measured IC50 of the molecule CC[C@H](C)[C@H](S)C(=O)N[C@H]1CCC[C@H]2SC[C@@H](C(=O)O)N2C1=O [Example C-8] is ____.
Result: 13.4

Problem: Fill blank: measured IC50 of the molecule CC[C@H](C)[C@H](S)C(=O)N[C@H]1CSc2ccccc2N(CC(=O)O)C1=O [Example C-12] is ____.
Result: 15.1

Problem: Fill blank: measured IC50 of the molecule CC[C@H](C)[C@H](S)C(=O)N[C@H]1Cc2ccc(-c3ccccc3)cc2[C@H]2CCC[C@@H](C(=O)O)N2C1=O [Example C-14] is ____.
Result: 17.8
